Data origin: the RepoRT retention time repository (doi:10.1016/j.jchromb.2020.122105)

Measurement Description: HILIC, Merck SeQuant ZIC-HILIC, 150 × 2.1 mm, 5 µm, 0.75 mL/min, estimated dead time 0.44 min; A: water + 10 mM ammonium formate, pH 6; B: 5% water + 95% acetonitrile + 10 mM ammonium formate, pH 6; gradient (min/%B) 0/95 5/95 20/57 25/57 30/95 40/95
Condition Description: stereoisomer not certain
// reported LC retention time per item
Readout Type: LC retention time

1) O=C(O)CCCCCCCC(=O)O :: 7.14 min
2) O=C(O)c1cc(=O)c2cccc(O)c2[nH]1 :: 9.77 min
3) NCCS(=O)(=O)O :: 12.3 min
4) CC(=O)N[C@@H](Cc1ccccc1)C(=O)O :: 6.61 min
5) CC1NC(=O)NC1CCCCCC(=O)O (stereo not given) :: 3.19 min
6) CC(=O)NC(CCC(=O)O)C(=O)O (racemic) :: 14 min
7) O=C(O)c1ccc2ccccc2c1[O-] [1-HYDROXY-2-NAPHTHOATE] :: 1.33 min
8) CC(=O)N[C@@H](CC(C)C)C(=O)O :: 6.56 min
9) COc1cc(C=CC(=O)O)ccc1O [FERULATE] :: 2.09 min
10) O=c1[nH]c(=O)c2[nH]cnc2[nH]1 :: 5.7 min

* * *

Measurement Description: RP, Waters ACQUITY UPLC BEH C18, 100 × 2.1 mm, 1.7 µm, 0.2 mL/min, estimated dead time 1.1 min; A: water + 0.025% formic acid + 20 mM ammonium acetate + 0.055% ammonium hydroxide, pH 7; B: methanol; gradient (min/%B) 0/5 5/5 25/100 30/100 30.1/5 35/5
Condition Description: stereoisomer not certain
Quick rule: LC retention time of at least 10 min means fulfilled, below that means not fulfilled.

1. Cc1ncc(CO)c(CN)c1O :: not fulfilled
2. Nc1ncnc2nc[nH]c12 :: not fulfilled
3. CC(=O)NCCc1c[nH]c2ccc(O)cc12 :: fulfilled
4. Cc1cc2nc3c(=O)[nH]c(=O)nc-3n(CC(O)C(O)C(O)CO)c2cc1C (stereo not given) :: fulfilled
5. COc1ccc2[nH]cc(CCNC(C)=O)c2c1 :: fulfilled
6. Cc1ncc(C[n+]2csc(CCO)c2C)c(N)n1 :: not fulfilled
7. O=CCc1c[nH]c2ccccc12 :: fulfilled
8. Cc1cc2nc3[nH]c(=O)[nH]c(=O)c3nc2cc1C :: fulfilled
9. Nc1ccnc(=O)[nH]1 :: not fulfilled
10. NC(=O)C1CCCN1C(=O)C(Cc1cnc[nH]1)NC(=O)C1CCC(=O)N1 (stereo not given) :: not fulfilled
11. Cn1cncc1CC(NC(=O)CCN)C(=O)O (stereo not given) :: not fulfilled
12. CC(=O)OCC(=O)C1CCC2C3CCC4=CC(=O)CCC4(C)C3CCC12C (stereo not given) [DEOXYCORTICOSTERONE ACETATE] :: fulfilled
13. CCCCCCCCCC(=O)OCC(COP(=O)([O-])OCC[N+](C)(C)C)OC(=O)CCCCCCCCC (stereo not given) :: fulfilled
14. C=CC1=C(C)C(C=c2[nH]c(=Cc3[nH]c(C=C4NC(=O)C(C)=C4C=C)c(C)c3CCC(=O)O)c(CCC(=O)O)c2C)=NC1=O :: fulfilled
15. NC(=O)c1cccnc1 [NICOTINAMIDE] :: not fulfilled
16. Cn1cnc2c(ncn2C2OC(CO)C(O)C2O)c1=N (stereo not given) :: fulfilled
17. O=C(O)CCCCC1SCC2NC(=O)NC21 (stereo not given) :: not fulfilled
18. OCCNCCO :: not fulfilled
19. CC(C)=CCNc1ncnc2nc[nH]c12 :: fulfilled
20. CN1CC(=O)NC1=N :: not fulfilled
